ASSAYED SYSTEM: hGLP-1R (Homo sapiens, UniProt P43220)
Sequence (P43220 24-463): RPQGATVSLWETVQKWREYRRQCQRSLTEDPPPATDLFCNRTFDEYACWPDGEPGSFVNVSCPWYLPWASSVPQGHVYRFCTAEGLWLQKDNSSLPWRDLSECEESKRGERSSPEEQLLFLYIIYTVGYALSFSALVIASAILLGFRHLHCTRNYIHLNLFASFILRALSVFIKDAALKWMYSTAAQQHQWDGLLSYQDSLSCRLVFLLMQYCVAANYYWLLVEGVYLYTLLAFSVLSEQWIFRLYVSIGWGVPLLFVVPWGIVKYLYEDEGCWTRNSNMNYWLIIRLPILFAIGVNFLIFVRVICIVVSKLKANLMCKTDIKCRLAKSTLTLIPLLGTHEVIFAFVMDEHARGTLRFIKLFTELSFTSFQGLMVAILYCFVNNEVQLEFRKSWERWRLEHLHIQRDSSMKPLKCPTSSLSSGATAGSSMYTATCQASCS
TEST: Functional cAMP activity in the presence of 1% HSA
Assay type: cell-based
RECORDED CONDITIONS: read-out: cAMP Rel EC50, hGLP-1R
Starred links: 1 amine or outer side, 2 acyl side, 3 side chain; linkers in the order of their positions; H or OH if unused. Non-standard residues stand in square brackets, D forms with d. Groups on a side chain read outwards from the residue. No end group written: not given here. *: point of attachment. C20 diacid = O=C(O)CCCCCCCCCCCCCCCCCCC(=O)*; C18 diacid = O=C(O)CCCCCCCCCCCCCCCCC(=O)*; αMePhe(2-F) = C[C@](N)(Cc1ccccc1F)C(=O)O; γGlu = O=C(O)[C@H](CCC(=O)[*:2])N[*:1]; αMe4Pal = C[C@](N)(Cc1ccncc1)C(=O)O; αMeY = C[C@](N)(Cc1ccc(O)cc1)C(=O)O; 4Pal = N[C@@H](Cc1ccncc1)C(=O)O; αMeL = CC(C)C[C@](C)(N)C(=O)O; αMeS = C[C@](N)(CO)C(=O)O; Iva = CC[C@](C)(N)C(=O)O; Orn = NCCC[C@H](N)C(=O)O; AEEA = NCCOCCOCC(=O)O; Aib = CC(C)(N)C(=O)O
Recorded log10 of EC50 values for a group of substances are listed next.
OUTCOME MEASURE: log10 of EC50 (log10 of the value in nM)

{"SUBSTANCE": "H-Y[Aib]QGTFTSD[4Pal]SQ[αMeL]LDKK([γGlu-γGlu-C18 diacid])AQ[Aib]AFIE[αMeY]LLEGGPSSGAPPPSGSEE-NH2 [Example 945]", "log10 of EC50": 2.74}
{"SUBSTANCE": "H-Y[Aib]QGT[αMePhe(2-F)]TSD[4Pal][αMeS]I[αMeL]LD[Orn]K([γGlu-γGlu-C18 diacid])AQ[Aib][Orn]FI[dE][αMeY]LQEGGPSSGEPPPSGTEE-NH2 [Example 572]", "log10 of EC50": 1.48}
{"SUBSTANCE": "H-Y[Aib]QGTFTSDYSI[αMeL]LDKQAAK([AEEA-AEEA-γGlu-C20 diacid])QFVEWLLA[Aib]GPSSGAPPPSEG-NH2 [Example 327]", "log10 of EC50": 2.67}
{"SUBSTANCE": "H-Y[Aib]QGTFTSD[4Pal]SQ[αMeL]LDKK([AEEA-γGlu-C18 diacid])AQ[αMe4Pal]AFIE[αMe4Pal]LIEGGPSSGAPPPSGS-NH2 [Example 948]", "log10 of EC50": 2.48}
{"SUBSTANCE": "H-Y[Aib]QGTFTSD[4Pal]SQ[αMeL]LDKK([AEEA-γGlu-C18 diacid])AQ[αMe4Pal]AFIEYLIE[Aib]GPSSGAPPPEGS-NH2 [Example 851]", "log10 of EC50": 2.63}
{"SUBSTANCE": "H-Y[Aib]QGT[αMePhe(2-F)]TSDYSILLDKIAQK([AEEA-γGlu-C20 diacid])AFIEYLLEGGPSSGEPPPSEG-NH2 [Example 293]", "log10 of EC50": 2.47}
{"SUBSTANCE": "Y[Aib]QGT[αMePhe(2-F)]TSD[4Pal][αMeS]I[αMeL]LD[Orn]K([γGlu-γGlu-C18 diacid])AQ[Aib][Orn]FI[dE][αMeY]LTEGGPSSGEPPPEGTEE-NH2 [Example 597]", "log10 of EC50": 1.56}
{"SUBSTANCE": "Y[Aib]QGTFTSD[4Pal][αMeS]Q[αMeL]LD[Orn]K([dE-γGlu-C18 diacid])AQ[Iva]QFIQ[αMeY]LLE[Aib]GPSSGAPPPSGGGE-NH2 [Example 1139]", "log10 of EC50": 2.19}
{"SUBSTANCE": "H-Y[Aib]QGT[αMePhe(2-F)]TSD[4Pal]SI[αMeL]LD[Orn]K([γGlu-γGlu-C18 diacid])AQ[αMe4Pal][Orn]FI[dE][αMeY]LIEGGPSSGEPPPEGTGE-NH2 [Example 688]", "log10 of EC50": 1.29}
{"SUBSTANCE": "H-Y[Aib]QGT[αMePhe(2-F)]TSD[4Pal][αMeS]I[αMeL]LD[Orn]K([AEEA-γGlu-C18 diacid])AA[Aib]EFI[dE][αMeY]LIEGGPSSGEPPPSGGGE-NH2 [Example 746]", "log10 of EC50": 1.59}
{"SUBSTANCE": "H-Y[Aib]QGTFTSDFS[Orn][αMeL]LDKK([AEEA-γGlu-C18 diacid])AQ[Aib]AFIEYLLEGGHSSGAPPPGGS-NH2 [Example 162]", "log10 of EC50": 2.90}

Values compiled from patent US20240270821A1.
